test system: MS2 coat protein; test: apparent Kd, MS2 coat protein; higher = weaker binding; RNA-MaP array; conditions: designed as: ON switch for flavin mononucleotide; no ligand
Tag: Fulfilled if measured apparent Kd is not below 0.04 µM, Not fulfilled if it is.

Challenge: Hi team, for `UUUCGUAACCAACAUGAGGAUCACCCAUGUAGAAAGUUCCUAAGAAGGACAUAACCCAAUAGCAUGUAGGAUAUAAGUAAUCAC` , is the recorded apparent Kd at or above 0.04 µM?
Response given: Not fulfilled

Challenge: Proceed to `CACAAACCAGAGAAGGCCCUAAGAGUAUAGAGAAUACGAAACAUGAGGAUCACCCAUGUCAUAUGGGAGGAUAUCAACAAGAUU`
Response given: Fulfilled

Challenge: Queued: `GACAUCAUAGGAGGAUAUGUUUUCUAAAGACUGACAGAAGGCCAGAACAGUAAGAACAAAAGACAUGAGGAUCACCCAUGUGUU`
Response given: Not fulfilled

Challenge: Query `UAGAGGUACGUUGGCGAACAUGAGGAUCACCCAUGUAAAUGAAGAAGGUGUGUUGCGCAAAACGACAAGGAUAUUCAAGACAUC` next
Response given: Fulfilled

Challenge: Try this sequence next: `GAAGAACCCGGAGGAUAUGCAAAGGAACAUGAGGAUCACCCAUGUUUCUUUCGGAAAUCUAGUGAGCAGAAGGCCGAAAGGAAC`
Response given: Not fulfilled

Challenge: Please do the same for `AAGGAACAUGAGGAUCACCCAUGUGCUUGCCAGCAAGGAUAUGGUUGUGACAUCUAUAUGCCAGAAGGUGCCGGAC` as well.
Response given: Fulfilled

Challenge: Then this sequence: `CUUCCCACGUAGAAGGUGCACCAGUUAACCAAUAACAGGUUGACAUGAGGAUCACCCAUGUUUCGCAAGGAUAUACUGUUCACG`
Response given: Fulfilled
